Hello, the source for this data is PubChem BioAssay (NCI), in case you need it.

Tested on: OVCAR-4 ovarian
Experiment: NCI tumour cell line growth inhibition, 48 h
observation.type: GI50

compound=Nc1ncc(-c2ccc3ncnc(N4CCc5ccc(Cl)cc54)c3c2)cc1C(F)(F)F target_or_system="OVCAR-4 ovarian" recorded_value="1070 nM"
compound="CCOc1ccc(C(C[N+](=O)[O-])Sc2ccccc2N)cc1 (configuration not stated)" target_or_system="OVCAR-4 ovarian" recorded_value="13000 nM"
compound=O=C(Nc1cc(Cl)ccc1O)c1cccc(Nc2ccnc(C(F)(F)F)c2)c1 target_or_system="OVCAR-4 ovarian" recorded_value="2320 nM"
compound=COc1ccc(-c2cc(-c3ccc(Cl)cc3)nc(NCCCCNc3ccnc4cc(Cl)ccc34)n2)cc1 target_or_system="OVCAR-4 ovarian" recorded_value="1720 nM"
compound=Cc1nc2sc3c(N)ncnc3c2c(C)c1C target_or_system="OVCAR-4 ovarian" recorded_value="> 25000 nM"
compound=CNC(=O)c1c(F)cccc1Nc1nc(Nc2cc3c(cc2OC)CCN3C(=O)CN(C)C)nc2[nH]ccc12 target_or_system="OVCAR-4 ovarian" recorded_value="1870 nM"
compound="COc1ccc(C2C(C#N)=C(N)Oc3c2sc2c(Br)cccc32)cc1 (configuration not stated)" target_or_system="OVCAR-4 ovarian" recorded_value="3020 nM"

###

Test system: SW-620 colon
Test: NCI tumour cell line growth inhibition, 48 h
observation.type: TGI

compound="CCOC(=O)CSC1NC(C(=O)OC)CC1OC (centres undefined)" recorded_value="> 100 µM"
compound=COc1ccc(S(=O)(=O)Nc2c(/C=C\c3cc(OC)c(OC)c(OC)c3)ccc(OC)c2O)cc1 recorded_value="> 100 µM"
compound=Cc1ccc(Cl)c(NS(=O)(=O)c2ccc(-c3cnc(C4CC4)o3)cc2)c1 recorded_value="> 100 µM"
compound="CCC(C)C1=C(O)[N+]2([O-])Oc3ccc(C4=C(O)C(=O)C(c5ccc(O)cc5)=C(O)C4=O)cc3OC2(C(C)CC)C(=O)N1O (centres undefined)" recorded_value="> 100 µM"
compound="COc1ccccc1[As]=[As]c1ccccc1OC (centres undefined)" recorded_value="0.0403 µM"
compound=COc1ccccc1/C=C1\S/C(=N/Nc2nc(C)c(C(C)=O)s2)NC1=O recorded_value="> 100 µM"
compound="CCOc1ccc(C(C[N+](=O)[O-])Sc2ccccc2N)cc1 (centres undefined)" recorded_value="4.45 µM"
compound=COc1cc([N+](=O)[O-])c(S(=O)(=O)O)cc1-n1nc(C(=O)Nc2ccccc2)n[n+]1-c1cc(S(=O)(=O)[O-])c([N+](=O)[O-])cc1OC recorded_value="> 100 µM"
compound=COC(=O)c1cc(O)c(O)c(O)c1-c1c(O)c(O)c(O)c(SC[C@H](NC(=O)OCc2ccccc2)C(=O)OCc2ccccc2)c1C(=O)OC recorded_value="62.8 µM"
compound=ClCC[N-]CC[N-]CCCl.ClCC[N-]CC[N-]CCCl.[O-][Cl+3]([O-])([O-])O.[Zn+2] recorded_value="47.2 µM"
compound="CCCCSCC(NC(=O)/C=C/c1c(C)[nH]c(=O)[nH]c1=O)C(=O)OC (centres undefined)" recorded_value="346 µM"
compound=COc1ccc2c(c1)CCc1cc(OC)ccc1/[N+]([O-])=[N+]\2[O-] recorded_value="26.1 µM"
compound=CCOC(=O)c1c(N2CCCC2)[nH]c(=O)c(C(c2ccc(Cl)c([N+](=O)[O-])c2)c2c(O)c(C(=O)OCC)c(N3CCCC3)[nH]c2=O)c1O recorded_value="> 100 µM"
compound=c1ccc2c(c1)Cc1c(Cc3csc4ccccc34)ccc3cccc-2c13 recorded_value="> 100 µM"
compound="CC(O)(C#N)CC(O)(C(F)(F)Cl)C(F)(F)Cl (centres undefined)" recorded_value="> 10 µM"
compound=COS(C)(=O)=O recorded_value="> 2 µM"
compound=CN(/N=C/c1ccccn1)C1=NCCCN1 recorded_value="> 100 µM"
compound=COc1ccc2c(O)c(/C=C3\N=Nc4ncccc43)oc2c1C[C@@H]1CCNC[C@H]1F recorded_value="1.12 µM"
compound=CC[C@H](C)[C@H](NC(=O)[C@H]1CCCCN1C)C(=O)N(C)[C@H](C[C@@H](OC(C)=O)c1cccc(C(=O)N[C@@H](Cc2ccccc2)C[C@H](C)C(=O)O)n1)C(C)C recorded_value="> 25 µM"

###

Reported TGI values follow for various molecules
System: UACC-62 melanoma
Test: NCI tumour cell line growth inhibition, 48 h
observation.type: TGI

molecule=O=C(Nc1cc(Cl)cc(Cl)c1)c1cccc(NC2=C(Cl)C(=O)N(Cc3ccccc3)C2=O)c1 recorded_value="> 100 µM"
molecule=O=C(/C=C/c1ccccn1)c1ccc(OCc2nnc(-c3ccc(Cl)cc3)o2)cc1 recorded_value="3.55 µM"
molecule=Cn1c(=O)cc2[nH]c3ccccc3n2c1=O recorded_value="> 100 µM"
molecule=CCc1cc2c(O)c(c1)Cc1cc(CC)cc(c1O)Cc1cc(CC)cc(c1O)Cc1cc(CC)cc(c1O)Cc1cc(CC)cc(c1O)Cc1cc(CC)cc(c1O)Cc1cc(CC)cc(c1O)C2 recorded_value="> 100 µM"
molecule="O=C(CC1C(=O)Nc2ccccc2S1(=O)=O)Nc1ccc(Cl)cc1 (centres undefined)" recorded_value="> 100 µM"
molecule=C=CCN1C[C@H](C)N([C@H](c2ccc(C(=O)N(CC)CC)cc2)c2cccc(OC)c2)C[C@H]1C recorded_value="> 100 µM"
molecule=COc1ccc(CNc2nc(NCc3ccc(OC)cc3)nc(NC3CCCC3)n2)cc1 recorded_value="> 59.6 µM"
molecule=CCCCOc1ccc(/C=N/Nc2cc(C)nc3ccc(Br)cc23)cc1 recorded_value="3.26 µM"
molecule="COc1ccc(C2C(C#N)=C(N)Oc3c2sc2c(Br)cccc32)cc1 (centres undefined)" recorded_value="15.4 µM"

###

System: NCI-H23 lung
Assay: NCI tumour cell line growth inhibition, 48 h; in the data active means GI50 below about 0.43 µM; inactive means the rest
Outcome codes: active, inactive

compound=Cc1ccc(Cl)c(NS(=O)(=O)c2ccc(-c3cnc(C4CC4)o3)cc2)c1 target_or_system="NCI-H23 lung" label_value=active
compound=N#Cc1nc(C#N)c(Sc2ccccc2)c(Sc2ccccc2)c1Sc1ccccc1 target_or_system="NCI-H23 lung" label_value=active
compound=Nc1ncc(-c2ccc3ncnc(N4CCc5ccc(Cl)cc54)c3c2)cc1C(F)(F)F target_or_system="NCI-H23 lung" label_value=inactive
compound="Clc1ccc2c(c1)N(C1CCCN(Cc3ccccc3)C1)c1ccccc1S2 (stereo unspecified)" target_or_system="NCI-H23 lung" label_value=inactive
compound="CCN1C(=O)N(CC)C2C1NN=c1s/c(=C3\\C(=O)N(C4CCCC4)c4ccccc43)c(=O)n12 (stereo unspecified)" target_or_system="NCI-H23 lung" label_value=inactive
compound=COc1ccc2c(c1)/C(=C\c1c(-c3cc(OC)ccc3OC)nc3sccn13)C(=O)N2 target_or_system="NCI-H23 lung" label_value=inactive

###

Test system: COLO 205 colon
Assay: NCI tumour cell line growth inhibition, 48 h; in the data active means GI50 below about 0.43 µM; inactive means the rest
Outcome codes: true for active, false for inactive

compound=N#Cc1nc(C#N)c(Sc2ccccc2)c(Sc2ccccc2)c1Sc1ccccc1 label_value=false
compound=CCOC(=O)c1c(C)nc2c(c1N)/C(=C/c1ccccn1)C(=O)N2Cc1ccccc1 label_value=false
compound=C/C=C/C(=O)[O-].C/C=C/C(=O)[O-].N.N.N.N.[Co+3].[O-][Cl+3]([O-])([O-])[O-] label_value=false
compound="CCOc1ccc(C(C[N+](=O)[O-])Sc2ccccc2N)cc1 (stereo not given)" label_value=false
compound=N=C(N)c1ccc(-c2ccc(-c3ccc4ccccc4c3)s2)s1 label_value=false
compound=COc1ccc(S(=O)(=O)Nc2c(/C=C\c3cc(OC)c(OC)c(OC)c3)ccc(OC)c2O)cc1 label_value=true
compound=CCCCOc1ccc(/C=N/Nc2cc(C)nc3ccc(Br)cc23)cc1 label_value=false
compound=COc1ccc(-c2cc(-c3ccc(Cl)cc3)nc(NCCCCNc3ccnc4cc(Cl)ccc34)n2)cc1 label_value=false
compound=CCC(=O)N1C/C(=C/c2ccc(Br)cc2)C(=O)/C(=C/c2ccc(Br)cc2)C1 label_value=false
compound="COc1ccccc1[As]=[As]c1ccccc1OC (stereo not given)" label_value=true

###

Tested on: EKVX NSCLC
Experiment: NCI tumour cell line growth inhibition, 48 h
Reported TGI values follow for various molecules
observation.type: TGI

molecule=O=C(Nc1cc(F)c(F)cc1C(=O)O)c1ccc(-n2ccnc2)nn1 target_or_system="EKVX NSCLC" observation_type=TGI recorded_value="> 100 µM"
molecule="NC(CCP(=O)(O)O)C(=O)O (stereo unspecified)" target_or_system="EKVX NSCLC" observation_type=TGI recorded_value="> 100 µM"
molecule=c1ccc2c(c1)c1c3c(c4c(n32)=NCCN4)CCC1 target_or_system="EKVX NSCLC" observation_type=TGI recorded_value="> 100 µM"
molecule=CC(=O)Nc1ccc(S(=O)(=O)N=S(C)C)cc1 target_or_system="EKVX NSCLC" observation_type=TGI recorded_value="> 100 µM"
molecule=O=C(Nc1ccc(Cl)cc1C(=O)O)c1ccc([N+](=O)[O-])cc1 target_or_system="EKVX NSCLC" observation_type=TGI recorded_value="82.8 µM"
molecule=c1ccc(Oc2ccc(Nc3ncc(-c4ccccc4)o3)cc2)cc1 target_or_system="EKVX NSCLC" observation_type=TGI recorded_value="> 25 µM"
molecule=O=C1Nc2ccccc2/C1=C\c1nc(-c2ccccc2F)n2ccccc12 target_or_system="EKVX NSCLC" observation_type=TGI recorded_value="28.3 µM"
molecule="CCN1C(=O)N(CC)C2C1NN=c1s/c(=C3\\C(=O)N(C4CCCC4)c4ccccc43)c(=O)n12 (stereo unspecified)" target_or_system="EKVX NSCLC" observation_type=TGI recorded_value="> 100 µM"
molecule=COc1c(I)c(OC)c2c(c1I)O[C@@H]1OCC[C@H]21 target_or_system="EKVX NSCLC" observation_type=TGI recorded_value="> 100 µM"
molecule=CN(C)C(=S)C(Cl)(c1ccccc1)c1ccccc1 target_or_system="EKVX NSCLC" observation_type=TGI recorded_value="75 µM"
molecule=Nc1ncc(-c2ccc3ncnc(N4CCc5ccc(Cl)cc54)c3c2)cc1C(F)(F)F target_or_system="EKVX NSCLC" observation_type=TGI recorded_value="18.7 µM"
